Give measured K obs / 1 for each item. Keep answers brief.
# Assay system: Human rhinovirus A protease (Human rhinovirus sp.) (UniProt Q4U254)
# Sequence (Q4U254 as listed by the source): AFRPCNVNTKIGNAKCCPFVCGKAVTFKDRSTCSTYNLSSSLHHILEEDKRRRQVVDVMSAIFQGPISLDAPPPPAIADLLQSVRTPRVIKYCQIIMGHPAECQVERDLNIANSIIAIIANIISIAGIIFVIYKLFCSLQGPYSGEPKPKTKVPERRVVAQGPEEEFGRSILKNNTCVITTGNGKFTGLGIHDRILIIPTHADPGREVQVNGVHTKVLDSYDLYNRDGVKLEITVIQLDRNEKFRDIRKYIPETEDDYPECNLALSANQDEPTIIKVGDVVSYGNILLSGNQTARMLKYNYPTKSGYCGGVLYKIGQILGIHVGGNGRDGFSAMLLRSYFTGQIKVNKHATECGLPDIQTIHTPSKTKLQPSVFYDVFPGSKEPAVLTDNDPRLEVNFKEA
# Test method notes: Irreversible inhibition of Human Rhinovirus (HRV-14) 3C Protease
# Measurement conditions: Rhinovirus B
The reply should be a number in M⁻¹ s⁻¹, with the unit left off.

Req: Give Human rhinovirus A protease (Human rhinovirus sp.) (UniProt Q4U254) K obs / 1 for the following compound: NC(=O)c1cccc(/C=C/C(=O)OCCc2ccccc2)c1
Resp: 83

Req: Give Human rhinovirus A protease (Human rhinovirus sp.) (UniProt Q4U254) K obs / 1 for the following compound: CCOC(=O)/C=C/c1cc(CN(CC)Cc2ccncc2)cc(C(N)=O)c1
Resp: 96

Req: Give Human rhinovirus A protease (Human rhinovirus sp.) (UniProt Q4U254) K obs / 1 for the following compound: CCOC(=O)/C=C/c1cc(CSc2nnc(-c3ccccn3)o2)cc(C(N)=O)c1
Resp: 286
